test_description: Tissue distribution (biodistribution) of radioiodinated compound in the rat
condition_context: rat, iv, 5 min
Threshold rule: Heart: Blood Ratio greater than or equal to 10 is true (1); below that, false (0).

Before answering, review these 5 worked examples.
1) OC(Cc1cccc([125I])c1)CN1CCC(c2ccccc2)CC1 (single isomer, unassigned; (+)) [(+)-[^125 l]12]
true (1)
2) OC(Cc1ccc([125I])cc1)CN1CCC(c2ccccc2)CC1 (single isomer, unassigned; (-)) [(-)-4-[^125 l]HIPP]
true (1)
3) OC(Cc1cccc([125I])c1)CN1CCC(c2ccccc2)CC1 (single isomer, unassigned; (-)) [(-)-[^125 l]12]
true (1)
4) OC(CN1CCC(c2ccccc2)CC1)c1ccc([125I])cc1 (single isomer, unassigned; (+)) [(+)-[^125 l]13]
true (1)
5) OC(CN1CCC(c2ccccc2)CC1)c1ccc([125I])cc1 (single isomer, unassigned; (-)) [(-)-[^125 l]13]
false (0)

Asked: Evaluate OC(Cc1ccc([125I])cc1)CN1CCC(c2ccccc2)CC1 (single isomer, unassigned; (+)) [(+)-4-[^125 l]HIPP] : Heart: Blood Ratio at minimum 10?
Given back: true (1)

###

tissue uptake at 1 h by entry:
test_description: Blocking experiments: inhibition of radiotracer accumulation in the rat by coadministered compound
Assay type: in vivo, rat (male Wistar)
condition_context: rat, muscle, iv, rat, iv, 60 min, + (dl)-vesamicol HCl 0.3 (Table 3) or 0.31 mg/kg; read-out: radioactivity in muscle
Just the number in %ID/g, nothing appended.

1. OC(Cc1ccc([125I])cc1)CN1CCC(c2ccccc2)CC1 (single isomer, unassigned; (-)) [(-)-4-[^125 l]HIPP]
0.06
2. OC(CN1CCC(c2ccccc2)CC1)c1ccc([125I])cc1 (single isomer, unassigned; (+)) [(+)-[^125 l]13]
0.06

Shifting focus to the compound that follows.
Note to self: tissue uptake at 1 h recorded for OC(Cc1cccc([125I])c1)CN1CCC(c2ccccc2)CC1 (single isomer, unassigned; (+)) [(+)-[^125 l]12] was 0.12

###

test_description: Tissue distribution (biodistribution) of radioiodinated compound in the rat
condition_context: rat, heart, iv, radioactivity in heart, 30 min
measured_endpoint: tissue uptake at 0.5 h (%ID/g)
Just the number in %ID/g, nothing appended.

Note to self: tissue uptake at 0.5 h recorded for OC(Cc1ccc([125I])cc1)CN1CCC(c2ccccc2)CC1 (single isomer, unassigned; (+)) [(+)-4-[^125 l]HIPP] was 1.23

###

test_description: Tissue distribution (biodistribution) of radioiodinated compound in the rat
condition_context: rat, kidney, iv, radioactivity in kidney, 30 min
measured_endpoint: tissue uptake at 0.5 h (%ID/g)
Just the number in %ID/g, nothing appended.

Note to self: tissue uptake at 0.5 h recorded for OC(Cc1ccc([125I])cc1)CN1CCC(c2ccccc2)CC1 (single isomer, unassigned; (+)) [(+)-4-[^125 l]HIPP] was 2.42

###

test_description: Tissue distribution (biodistribution) of radioiodinated compound in the rat
condition_context: rat, blood, iv, radioactivity in blood, 30 min
measured_endpoint: tissue uptake at 0.5 h (%ID/g)
Just the number in %ID/g, nothing appended.

Note to self: tissue uptake at 0.5 h recorded for OC(Cc1ccc([125I])cc1)CN1CCC(c2ccccc2)CC1 (single isomer, unassigned; (+)) [(+)-4-[^125 l]HIPP] was 0.04

###

test_description: Tissue distribution (biodistribution) of radioiodinated compound in the rat
condition_context: rat, iv, 60 min
radioactivity in lung by entry:
Form entry: enter the amount, then its unit.

Below are worked cases with known answers.
1. OC(CN1CCC(c2ccccc2)CC1)c1ccc([125I])cc1 (single isomer, unassigned; (+)) [(+)-[^125 l]13]
1.77 % dose/g
2. OC(Cc1ccc([125I])cc1)CN1CCC(c2ccccc2)CC1 (single isomer, unassigned; (-)) [(-)-4-[^125 l]HIPP]
3.33 % dose/g
3. OC(CN1CCC(c2ccccc2)CC1)c1ccc([125I])cc1 (single isomer, unassigned; (-)) [(-)-[^125 l]13]
0.54 % dose/g

Shifting focus to the compound that follows.
Note to self: radioactivity in lung recorded for OC(Cc1cccc([125I])c1)CN1CCC(c2ccccc2)CC1 (single isomer, unassigned; (-)) [(-)-[^125 l]12] was 1.04 % dose/g

###

test_description: Blocking experiments: inhibition of radiotracer accumulation in the rat by coadministered compound
Assay type: in vivo, rat (male Wistar)
condition_context: rat, heart, iv, rat, iv, 60 min, + (+)-7 HCl 0.53 mg/kg; read-out: radioactivity in heart
measured_endpoint: tissue uptake at 1 h (%ID/g)
Just the number in %ID/g, nothing appended.

Note to self: tissue uptake at 1 h recorded for OC(Cc1ccc([125I])cc1)CN1CCC(c2ccccc2)CC1 (single isomer, unassigned; (-)) [(-)-4-[^125 l]HIPP] was 0.12

###

Heart: Blood Ratio by entry:
test_description: Tissue distribution (biodistribution) of radioiodinated compound in the rat
condition_context: rat, iv, 180 min
Respond numerically, and do not add a unit to the figure.

Below are worked cases with known answers.
1) OC(Cc1cccc([125I])c1)CN1CCC(c2ccccc2)CC1 (single isomer, unassigned; (+)) [(+)-[^125 l]12]
2.1
2) OC(Cc1ccc([125I])cc1)CN1CCC(c2ccccc2)CC1 (single isomer, unassigned; (-)) [(-)-4-[^125 l]HIPP]
42.5

Note to self: Heart: Blood Ratio recorded for OC(Cc1ccc([125I])cc1)CN1CCC(c2ccccc2)CC1 (single isomer, unassigned; (+)) [(+)-4-[^125 l]HIPP] was 28.2

Note to self: Heart: Blood Ratio recorded for OC(Cc1cccc([125I])c1)CN1CCC(c2ccccc2)CC1 (single isomer, unassigned; (-)) [(-)-[^125 l]12] was 0.9

Note to self: Heart: Blood Ratio recorded for OC(CN1CCC(c2ccccc2)CC1)c1ccc([125I])cc1 (single isomer, unassigned; (+)) [(+)-[^125 l]13] was 5.7

Note to self: Heart: Blood Ratio recorded for OC(CN1CCC(c2ccccc2)CC1)c1ccc([125I])cc1 (single isomer, unassigned; (-)) [(-)-[^125 l]13] was 0.9

###

radioactivity in lung by entry:
test_description: Tissue distribution (biodistribution) of radioiodinated compound in the rat
condition_context: rat, iv, 180 min
Just the number in % dose/g, nothing appended.

1) OC(CN1CCC(c2ccccc2)CC1)c1ccc([125I])cc1 (single isomer, unassigned; (+)) [(+)-[^125 l]13]
0.62

Note to self: radioactivity in lung recorded for OC(CN1CCC(c2ccccc2)CC1)c1ccc([125I])cc1 (single isomer, unassigned; (-)) [(-)-[^125 l]13] was 0.24

Note to self: radioactivity in lung recorded for OC(Cc1cccc([125I])c1)CN1CCC(c2ccccc2)CC1 (single isomer, unassigned; (-)) [(-)-[^125 l]12] was 0.46

Note to self: radioactivity in lung recorded for OC(Cc1ccc([125I])cc1)CN1CCC(c2ccccc2)CC1 (single isomer, unassigned; (-)) [(-)-4-[^125 l]HIPP] was 2.52

###

test_description: Tissue distribution (biodistribution) of radioiodinated compound in the rat
condition_context: rat, iv, 180 min
measured_endpoint: radioactivity in blood (% dose/g)
Just the number in % dose/g, nothing appended.

Below are worked cases with known answers.
1) OC(Cc1cccc([125I])c1)CN1CCC(c2ccccc2)CC1 (single isomer, unassigned; (-)) [(-)-[^125 l]12]
0.11
2) OC(CN1CCC(c2ccccc2)CC1)c1ccc([125I])cc1 (single isomer, unassigned; (-)) [(-)-[^125 l]13]
0.06
3) OC(CN1CCC(c2ccccc2)CC1)c1ccc([125I])cc1 (single isomer, unassigned; (+)) [(+)-[^125 l]13]
0.02

Shifting focus to the molecule that follows.
Note to self: radioactivity in blood recorded for OC(Cc1ccc([125I])cc1)CN1CCC(c2ccccc2)CC1 (single isomer, unassigned; (-)) [(-)-4-[^125 l]HIPP] was 0.01

###

tissue uptake at 5 min by entry:
test_description: Tissue distribution (biodistribution) of radioiodinated compound in the rat
condition_context: rat, liver, iv, radioactivity in liver, 5 min
Just the number in %ID/g, nothing appended.

1) OC(Cc1cccc([125I])c1)CN1CCC(c2ccccc2)CC1 (single isomer, unassigned; (+)) [(+)-[^125 l]12]
1.17
2) OC(CN1CCC(c2ccccc2)CC1)c1ccc([125I])cc1 (single isomer, unassigned; (+)) [(+)-[^125 l]13]
1.19

Shifting focus to the compound that follows.
Note to self: tissue uptake at 5 min recorded for OC(Cc1ccc([125I])cc1)CN1CCC(c2ccccc2)CC1 (single isomer, unassigned; (+)) [(+)-4-[^125 l]HIPP] was 1.58

###

test_description: Blocking experiments: inhibition of radiotracer accumulation in the rat by coadministered compound
Type: in vivo, rat (male Wistar)
condition_context: rat, brain, iv, rat, iv, 60 min, + (dl)-vesamicol HCl 0.3 (Table 3) or 0.31 mg/kg; read-out: radioactivity in brain
tissue uptake at 1 h by entry:
Just the number in %ID/g, nothing appended.

Below are worked cases with known answers.
1) OC(Cc1ccc([125I])cc1)CN1CCC(c2ccccc2)CC1 (single isomer, unassigned; (-)) [(-)-4-[^125 l]HIPP]
0.31
2) OC(CN1CCC(c2ccccc2)CC1)c1ccc([125I])cc1 (single isomer, unassigned; (+)) [(+)-[^125 l]13]
0.24

Shifting focus to the compound that follows.
Note to self: tissue uptake at 1 h recorded for OC(Cc1cccc([125I])c1)CN1CCC(c2ccccc2)CC1 (single isomer, unassigned; (+)) [(+)-[^125 l]12] was 0.26
